Protocol summary: Pharmacokinetic study in rats after oral administration of cinobufacini capsule (UPLC-MS/MS of plasma)
Type: in vivo, rat
Settings: male, Sprague-Dawley, in vivo; rat plasma, oral cinobufacini capsule 3.6 g/kg (high), mean ± SD, n = 6
Please respond with reported log10(AUC(0-t)) for every item in the list.
Base-10 log of AUC(0-t), unit µg·h/mL.

Q. GET /values?readout=log10(AUC(0-t))&item= C[C@]12CC[C@H](O)C[C@@]1(O)CC[C@@H]1[C@@H]2CC[C@]2(C)[C@@H](c3ccc(=O)oc3)CC[C@]12O
A. -0.66

Q. Report log10(AUC(0-t)) for C[C@]12CC[C@H]3[C@@H](CC[C@]4(O)C[C@@H](O)CC[C@]34C=O)[C@@]1(O)CC[C@@H]2c1ccc(=O)oc1 please.
A. -1.51

Q. Field request: log10(AUC(0-t)) | item: C[C@]12CC[C@H](O)C[C@H]1CC[C@@H]1[C@@H]2CC[C@]2(C)[C@@H](c3ccc(=O)oc3)CC[C@]12O
A. -0.34

Q. Entry under review: C[C@]12CC[C@H](O)C[C@@]1(O)CC[C@@H]1[C@@H]2CC[C@]2(C)[C@@H](c3ccc(=O)oc3)[C@@H](O)[C@H]3O[C@]132 . Reported log10(AUC(0-t))?
A. -1.21

Q. Would you mind telling me what log10(AUC(0-t)) value was observed for C[C@]12CC[C@H](O)C[C@H]1CC[C@@H]1[C@@H]2C(=O)[C@@H](O)[C@]2(C)[C@@H](c3ccc(=O)oc3)CC[C@]12O ?
A. -1.33
